test: Cytotoxicity (CC50) in Calu-3 cells
settings: human
measured-metric: CC50 at 24 h

Example entries begin here.
[[record]]
smiles_text = "Cc1cc(O)c2c(c1)C(=O)c1cc(O)cc(O)c1C2=O"
measured_metric = "CC50 at 24 h"
readout_value = "> 50 µM"

[[record]]
smiles_text = "CCN1CCN(c2cc(-c3ccc(F)cc3)c3c(n2)CCCCCC3)CC1"
measured_metric = "CC50 at 24 h"
readout_value = "> 50 µM"


Could you now consider this next compound?
Measured CC50 at 24 h, Cn1cncc1[C@@](N)(c1ccc(Cl)cc1)c1ccc2c(c1)c(-c1cccc(Cl)c1)cc(=O)n2C : > 50 µM
